Method Description: Inhibition of Hepatitis C virus genotype 6a replicon NS5A transfected in human HuH7 cells assessed as decrease in replication of viral replicon after 4 days by luciferase reporter gene assay
Format: cell-based, Hepatitis C virus subtype 6a
Condition Context: Huh-7, 96 h
pEC50: −log10 of the molar value.

Mol Smiles	Sign	pEC50
COC(=O)N[C@H](C(=O)N1CCC[C@H]1c1nc2c(F)c(-c3ccc(-c4c(F)cc5[nH]c([C@@H]6CCCN6C(=O)[C@@H](NC(=O)OC)C(C)C)nc5c4F)cc3)c(F)cc2[nH]1)C(C)C	=	7.76
COCc1c(-c2ccc(-c3ccc4[nH]c([C@@H]5CCCN5C(=O)[C@@H](NC(=O)OC)C(C)C)nc4c3COC)cc2)ccc2[nH]c([C@@H]3CCCN3C(=O)[C@@H](NC(=O)OC)C(C)C)nc12	<	7.00
COC(=O)N[C@H](C(=O)N1CCC[C@H]1c1nc2cc(-c3ccc(-c4cc(C)c5[nH]c([C@@H]6CCCN6C(=O)[C@@H](NC(=O)OC)C(C)C)nc5c4)cc3)cc(C)c2[nH]1)C(C)C	=	7.64

The reported measurements were obtained from ChEMBL document CHEMBL3864160.
